Measured CC50 values are reported for all entries that follow.
Experimental Protocol: in vitro
Assay Setup: human
Please state the figure in µM; there is no need to write the unit.

Illustrative cases are given below, each with its answer.
[[record]]
molecule = "Nc1ccc(Br)cc1C(=O)NCCCCNc1ccnc2cc(Cl)ccc12"
reported_measurement = 7.5

[[record]]
molecule = "O=C(NCCCCNc1ccnc2ccccc12)c1ccccc1NCc1ccccc1"
reported_measurement = 5.6

[[record]]
molecule = "Nc1cc(Cl)ccc1C(=O)NCCCCNc1ccnc2cc(Cl)ccc12"
reported_measurement = 8.3


Using the record for CCN(CC)CCCC(C)Nc1ccnc2cc(Cl)ccc12 (stereo not drawn) [CQ, chloroquine, reference compound] , report its CC50.
40.8

Using the record for Nc1ccccc1C(=O)NCCCCNc1ccnc2ccccc12 , report its CC50.
46.3
